target: UniProtKB P13945; experiment: cAMP potency assay, B3-AR expressing CHO-K1 cells; type: cell-based; conditions: read-out: Average EC50 [Receptor subtype: B3-AR, Cell type: CHO-K1]
Sequence (P13945 whole entry, species assumed): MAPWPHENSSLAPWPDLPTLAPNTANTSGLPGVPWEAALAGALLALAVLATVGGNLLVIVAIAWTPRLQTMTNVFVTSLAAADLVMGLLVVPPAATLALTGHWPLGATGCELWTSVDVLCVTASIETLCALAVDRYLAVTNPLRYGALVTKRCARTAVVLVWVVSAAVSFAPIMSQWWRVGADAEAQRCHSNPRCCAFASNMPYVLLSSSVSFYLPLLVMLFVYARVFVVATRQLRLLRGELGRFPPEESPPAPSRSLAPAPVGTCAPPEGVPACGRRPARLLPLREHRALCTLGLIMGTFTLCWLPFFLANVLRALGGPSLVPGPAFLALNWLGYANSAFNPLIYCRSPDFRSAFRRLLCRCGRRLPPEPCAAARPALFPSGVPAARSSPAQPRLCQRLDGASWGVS
pEC50: −log10 of the molar value.
MEASURE: pEC50

[[record]]
molecule = "[2H]C([2H])([2H])C(NCC(O)c1cccc(C(F)(F)F)n1)(C([2H])([2H])[2H])C([2H])([2H])[2H] (stereo not shown)"
measure = "pEC50"
result = "< 6.00"

[[record]]
molecule = "CC(C)(C)NC[C@H](O)c1cccnc1C1CCCC1"
measure = "pEC50"
result = "< 6.00"

[[record]]
molecule = "CC(C)(C)NC[C@H](O)c1cccc(C#N)n1"
measure = "pEC50"
result = "6.00 to 7.00"

[[record]]
molecule = "CC(C)(C)NC[C@H](O)c1cncc(C(F)(F)F)n1"
measure = "pEC50"
result = "< 6.00"

[[record]]
molecule = "CC(C)NC[C@H](O)c1cccc(C2CC2)n1"
measure = "pEC50"
result = "< 6.00"

[[record]]
molecule = "CC(C)(C)NC[C@H](O)c1ccnc(C(F)(F)F)n1"
measure = "pEC50"
result = "> 8.00"

[[record]]
molecule = "CC(C)Oc1ncccc1[C@@H](O)CNC(C)(C)C"
measure = "pEC50"
result = "< 6.00"

[[record]]
molecule = "CC(C)(C)NC[C@H](O)c1cccc(C(F)F)n1"
measure = "pEC50"
result = "< 6.00"

[[record]]
molecule = "CCOc1ncccc1[C@@H](O)CNC(C)(C)C"
measure = "pEC50"
result = "< 6.00"

[[record]]
molecule = "COc1ncccc1[C@@H](O)CNC(C)(C)C"
measure = "pEC50"
result = "6.00 to 7.00"


Each recorded value in this set is attributed to patent US10947196B2.
